biological target: Bcl-2-like protein 1 (Homo sapiens, UniProt Q07817, Y195F); assay: Displacement of BODIPY-Bak conjugated peptide from GST-tagged human Bcl-2-like protein 1 Y195F mutant expressed in Escherichia coli BL21 cells at 40 uM after 3 hrs by fluorescence polarization competition assay

substance: H-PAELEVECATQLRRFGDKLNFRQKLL-OH
Ki: > 10 µM

----------
target: Bcl-2-like protein 1 (Homo sapiens); experiment: Displacement of BODIPY-Bak conjugated peptide from GST-tagged human Wild type Bcl-2-like protein 1 expressed in Escherichia coli BL21 cells at 40 uM after 3 hrs by fluorescence polarization competition assay

substance: H-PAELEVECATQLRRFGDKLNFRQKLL-OH
Ki: > 10 µM

----------
molecular target: Bcl-2-like protein 1 (Homo sapiens, UniProt Q07817, A93V); assay: Displacement of BODIPY-Bak conjugated peptide from GST-tagged human Bcl-2-like protein 1 A93V mutant expressed in Escherichia coli BL21 cells at 10 uM after 3 hrs by fluorescence polarization competition assay
Sequence (Q07817 whole entry A93V): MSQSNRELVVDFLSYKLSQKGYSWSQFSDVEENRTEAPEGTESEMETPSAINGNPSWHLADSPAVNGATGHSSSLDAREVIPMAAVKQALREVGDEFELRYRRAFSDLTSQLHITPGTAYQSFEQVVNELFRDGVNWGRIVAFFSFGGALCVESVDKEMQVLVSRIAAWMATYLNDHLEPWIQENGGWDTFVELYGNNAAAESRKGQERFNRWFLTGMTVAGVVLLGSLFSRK
pKi: −log10 of the molar value.
measuredEndpoint: pKi

smilesRepr: CN(C)CC[C@H](CSc1ccccc1)Nc1ccc(S(=O)(=O)NC(=O)c2ccc(N3CCC(C)(C)CC3)cc2)cc1[N+](=O)[O-]
obsValue: > 9.00

----------
molecular target: Bcl-2-like protein 1 (Homo sapiens, UniProt Q07817, L130A); assay: Displacement of BODIPY-Bak conjugated peptide from GST-tagged human Bcl-2-like protein 1 L130A mutant expressed in Escherichia coli BL21 cells at 10 uM after 3 hrs by fluorescence polarization competition assay
Sequence (Q07817 whole entry L130A): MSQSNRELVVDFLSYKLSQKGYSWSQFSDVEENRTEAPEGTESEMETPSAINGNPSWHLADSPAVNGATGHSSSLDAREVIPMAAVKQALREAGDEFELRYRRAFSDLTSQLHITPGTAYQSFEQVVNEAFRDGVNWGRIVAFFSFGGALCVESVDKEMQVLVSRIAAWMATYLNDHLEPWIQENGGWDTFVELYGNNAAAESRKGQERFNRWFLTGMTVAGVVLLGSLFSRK
measuredEndpoint: Ki (nM)

smilesRepr: CN(C)CC[C@H](CSc1ccccc1)Nc1ccc(S(=O)(=O)NC(=O)c2ccc(N3CCC(C)(C)CC3)cc2)cc1[N+](=O)[O-]
obsValue: 47

----------
target: Bcl-2-like protein 1 (Homo sapiens, UniProt Q07817, Y101H); assay: Displacement of BODIPY-Bak conjugated peptide from GST-tagged human Bcl-2-like protein 1 Y101H mutant expressed in Escherichia coli BL21 cells at 10 uM after 3 hrs by fluorescence polarization competition assay

smilesRepr: CN(C)CC[C@H](CSc1ccccc1)Nc1ccc(S(=O)(=O)NC(=O)c2ccc(N3CCC(C)(C)CC3)cc2)cc1[N+](=O)[O-]
Ki (nM): 450

----------
biological target: Bcl-2-like protein 1 (Homo sapiens, UniProt Q07817); test: Displacement of BODIPY-Bak conjugated peptide from GST-tagged human Wild type Bcl-2-like protein 1 expressed in Escherichia coli BL21 cells at 10 uM after 3 hrs by fluorescence polarization competition assay
Sequence (Q07817 whole entry): as the sequence (Q07817 whole entry A93V) above, with V93A counted along it
Labelling field: enter Criterion met if recorded Ki is less than 3 nM. Enter Criterion not met if it equals or exceeds that cut-off.

compound: C[C@H]1CN(c2ccc(C(=O)NS(=O)(=O)c3ccc(N[C@H](CCN(C)C)CSc4ccccc4)c([N+](=O)[O-])c3)cc2)CCN1Cc1ccccc1C(F)(F)F
targetOfAssay: Bcl-2-like protein 1 (Homo sapiens, UniProt Q07817)
labelValue: Criterion met
//
compound: CC(C)[C@@H]1CN(Cc2ccccc2C(F)(F)F)CCN1c1ccc(C(=O)NS(=O)(=O)c2ccc(N[C@H](CCN(C)C)CSc3ccccc3)c([N+](=O)[O-])c2)cc1
targetOfAssay: Bcl-2-like protein 1 (Homo sapiens, UniProt Q07817)
labelValue: Criterion met
//
compound: CN(C)CC[C@H](CSc1ccccc1)Nc1ccc(S(=O)(=O)NC(=O)c2ccc(N3CCC(C)(C)CC3)cc2)cc1[N+](=O)[O-]
targetOfAssay: Bcl-2-like protein 1 (Homo sapiens, UniProt Q07817)
labelValue: Criterion not met
//
compound: CC(C)[C@H]1CN(Cc2ccccc2C(F)(F)F)CCN1c1ccc(C(=O)NS(=O)(=O)c2ccc(N[C@H](CCN(C)C)CSc3ccccc3)c([N+](=O)[O-])c2)cc1
targetOfAssay: Bcl-2-like protein 1 (Homo sapiens, UniProt Q07817)
labelValue: Criterion not met
//
compound: CN(C)CC[C@H](CSc1ccccc1)Nc1ccc(S(=O)(=O)NC(=O)c2ccc(N3CCN(Cc4ccccc4C(F)(F)F)CC3)cc2)cc1[N+](=O)[O-]
targetOfAssay: Bcl-2-like protein 1 (Homo sapiens, UniProt Q07817)
labelValue: Criterion not met
//
compound: C[C@@H]1CN(c2ccc(C(=O)NS(=O)(=O)c3ccc(N[C@H](CCN(C)C)CSc4ccccc4)c([N+](=O)[O-])c3)cc2)CCN1Cc1ccccc1C(F)(F)F
targetOfAssay: Bcl-2-like protein 1 (Homo sapiens, UniProt Q07817)
labelValue: Criterion met
//
compound: CC1CN(c2ccc(C(=O)NS(=O)(=O)c3ccc(N[C@H](CCN(C)C)CSc4ccccc4)c([N+](=O)[O-])c3)cc2)CC(C)N1Cc1ccccc1C(F)(F)F (some centres not stated)
targetOfAssay: Bcl-2-like protein 1 (Homo sapiens, UniProt Q07817)
labelValue: Criterion not met
